# maps each entry to its GRmax, 72 h
Tested on: SUM44PE
Measurement Description: GRmax, 72 h; higher = less effect;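 note: breast cell lines in 384-well plates, nine doses across a 10^4 range, Dye Drop imaging of viable cells vs DMSO and time-zero plates, GR 0 means no net growth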
Write the value in GR as a bare number.

{"Compound": "CC(=O)O[C@H]1C(=O)[C@@]2(C)[C@H]([C@H](OC(=O)c3ccccc3)[C@]3(O)C[C@H](OC(=O)[C@H](O)[C@@H](NC(=O)c4ccccc4)c4ccccc4)C(C)=C1C3(C)C)[C@]1(OC(C)=O)CO[C@@H]1C[C@@H]2O [Paclitaxel] (max 1 µM)", "GRmax, 72 h / GR": -0.474}
{"Compound": "CCC(=O)Nc1ccc(C(=O)Nc2ccc(Nc3ncc4c(n3)N(C)c3ccc(C)cc3C(=O)N4C)cc2)cc1 [FMF-03-145-1]", "GRmax, 72 h / GR": -0.0614}
{"Compound": "C=CC(=O)Nc1ccc(C(=O)Nc2[nH]nc3c2CN(C(=O)N[C@H](CN(C)C)c2ccccc2)C3(C)C)cc1 [YKL-5-124] (max 10 µM)", "GRmax, 72 h / GR": -0.448}

Name the recorded GRmax, 72 h of the compound listed here: CN1CCN(CCOc2cc(OC3CCOCC3)c3c(Nc4c(Cl)ccc5c4OCO5)ncnc3c2)CC1 [Saracatinib/AZD0530] (max 10 µM)
0.381

Give the reported value of GRmax, 72 h for this record: CC(C)n1nc(-c2ccc3oc(N)nc3c2)c2c(N)ncnc21 [INK128/MLN0128] (max 3.162 µM)
-0.523

Give the measured GRmax, 72 h for CN(C)C/C=C/C(=O)Nc1ccc(C(=O)Nc2cccc(Nc3cc(-c4c[nH]c5ccccc45)ncn3)c2)cc1 [THZ-P1-2] (max 10 µM)
-0.518
